target: NS3/NS4 complexes (Hepatitis C virus genotype 1a, UniProt P27958); assay: NS3/NS4 inhibition assay (IC50); details: NS3/NS4 activity; 23° C., 25 μM NS4A peptide
Sequence (P27958 1027-1657, one chain of several): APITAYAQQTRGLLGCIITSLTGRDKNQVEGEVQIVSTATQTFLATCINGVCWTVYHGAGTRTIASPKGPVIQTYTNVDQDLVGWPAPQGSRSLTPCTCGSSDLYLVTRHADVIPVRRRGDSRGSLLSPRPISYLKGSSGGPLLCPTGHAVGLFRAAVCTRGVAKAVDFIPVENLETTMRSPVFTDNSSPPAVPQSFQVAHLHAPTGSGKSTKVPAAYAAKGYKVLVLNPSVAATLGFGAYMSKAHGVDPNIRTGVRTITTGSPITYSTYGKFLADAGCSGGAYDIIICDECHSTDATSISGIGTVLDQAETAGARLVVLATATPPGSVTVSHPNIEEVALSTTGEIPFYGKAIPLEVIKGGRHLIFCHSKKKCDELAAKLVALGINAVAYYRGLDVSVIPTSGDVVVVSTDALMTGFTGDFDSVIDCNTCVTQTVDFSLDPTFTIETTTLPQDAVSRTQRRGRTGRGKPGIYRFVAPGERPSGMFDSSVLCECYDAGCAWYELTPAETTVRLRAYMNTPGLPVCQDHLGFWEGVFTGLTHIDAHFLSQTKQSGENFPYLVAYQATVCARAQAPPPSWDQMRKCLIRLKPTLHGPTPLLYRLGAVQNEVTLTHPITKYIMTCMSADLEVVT
pIC50: −log10 of the molar value.
assay_readout: pIC50

structure_smiles_string	value_observed
CC(C)n1c(O[C@@H]2C[C@H]3C(=O)N[C@]4(C(=O)NS(=O)(=O)C5(C)CC5)C[C@H]4/C=C\CCCCC[C@H](Nc4ccccc4)C(=O)N3C2)nc2c(-c3ccccc3)cccc21	> 8.00
C=Cc1cccc2c1nc(O[C@@H]1C[C@H]3C(=O)N[C@]4(C(=O)NS(=O)(=O)C5CC5)C[C@H]4/C=C\CCCCC[C@H](NC(=O)OC(C)(C)C)C(=O)N3C1)n2C(C)C	> 8.00

Moving on to the next compound.
Q. I am curious: what pIC50 value has been reported for "CCOC(=O)Nc1cccc2c1nc(O[C@@H]1C[C@H]3C(=O)N[C@]4(C(=O)NS(=O)(=O)N(C)C)C[C@H]4/C=C\CCCCC[C@H](NC(=O)OC(C)(C)C)C(=O)N3C1)n2C(C)C" ?
A. > 8.00
